# tested_system: T1, CD3 epsilon homodimer protein (UniProt P07766 23-126)
# T1 construct: also called CD3 (CD3 epsilon)
# T1 sequence (P07766 23-126): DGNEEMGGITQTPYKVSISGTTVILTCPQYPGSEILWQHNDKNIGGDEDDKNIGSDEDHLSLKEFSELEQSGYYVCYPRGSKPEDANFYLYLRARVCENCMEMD
# procedure_summary: SPR, antibody over immobilised CD3e homodimer;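 further: SPR at 25 °C with CD3 epsilon homodimer amine-coupled to a CM4 sensor chip and antibody flowed over as analyte in HBS-EP+ running buffer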
outcome_measure: KD ratio to GLS3000
Respond with the number and no other words.

# count of solved cases: 2
binder | outcome_measure | numeric_value
CE115HA000/GLS3000 N28T (antibody, IgG1, name in Kabat numbering, V domains shown, one-arm IgG1) VH: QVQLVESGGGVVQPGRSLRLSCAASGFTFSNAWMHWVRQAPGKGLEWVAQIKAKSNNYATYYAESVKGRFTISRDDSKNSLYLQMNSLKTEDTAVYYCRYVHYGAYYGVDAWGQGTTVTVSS VL: DIVMTQSPLSLPVTPGEPASISCRSSQSLVHSTRNTYLHWYQQKPGQAPRLLIYKVSNRFSGVPDRFSGSGSGTDFTLKISRVEAEDVGVYYCGQGTQVPYTFGQGTKLEIK | KD ratio to GLS3000 | 2.67
CE115HA000/GLS3000 V27cD (antibody, IgG1, name in Kabat numbering, V domains shown, one-arm IgG1) VH: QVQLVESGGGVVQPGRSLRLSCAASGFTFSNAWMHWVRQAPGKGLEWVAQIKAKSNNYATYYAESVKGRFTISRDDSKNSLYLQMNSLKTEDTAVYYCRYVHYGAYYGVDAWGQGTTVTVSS VL: DIVMTQSPLSLPVTPGEPASISCRSSQSLDHSNRNTYLHWYQQKPGQAPRLLIYKVSNRFSGVPDRFSGSGSGTDFTLKISRVEAEDVGVYYCGQGTQVPYTFGQGTKLEIK | KD ratio to GLS3000 | 3.21

Proceed to the following item.
Ask: Form field: reported KD ratio to GLS3000 of CE115HA000/GLS3000 S27eK (antibody, IgG1, name in Kabat numbering, V domains shown, one-arm IgG1) VH: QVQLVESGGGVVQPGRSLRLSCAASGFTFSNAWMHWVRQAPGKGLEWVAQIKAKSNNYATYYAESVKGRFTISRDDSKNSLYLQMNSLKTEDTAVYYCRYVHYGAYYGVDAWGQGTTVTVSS VL: DIVMTQSPLSLPVTPGEPASISCRSSQSLVHKNRNTYLHWYQQKPGQAPRLLIYKVSNRFSGVPDRFSGSGSGTDFTLKISRVEAEDVGVYYCGQGTQVPYTFGQGTKLEIK
Result: 1.32

Cited source: patent US20210388087A1
